Assay: Study 2: plasma concentration, HPLC
Type: in vivo, human
Settings: human, plasma, po, 2 mg, 2 mg capsule, 3.00 h
Assay readout: concentration at 3 h
Answer shape: numeric part, then the unit.

Req: Quote concentration at 3 h reported for CCOc1cc(CC(=O)NC(CC(C)C)c2ccccc2N2CCCCC2)ccc1C(=O)O (racemic) [AG-EE 388 ZW] please.
Resp: 27.9 ng/mL

###

Assay: clinical
Details: human, plasma, po, 1 mg
Assay readout: concentration at 3 h (ng/mL)
Please respond with the number in ng/mL and leave the unit unwritten.

Req: Quote concentration at 3 h reported for CCOc1cc(CC(=O)NC(CC(C)C)c2ccccc2N2CCCCC2)ccc1C(=O)O (racemic) please.
Resp: 14.8

###

Experiment: clinical
Settings: human, plasma, po, 0.5 mg
Assay readout: concentration at 1 h (ng/mL)
Please respond with the number in ng/mL and leave the unit unwritten.

Req: Quote concentration at 1 h reported for CCOc1cc(CC(=O)N[C@@H](CC(C)C)c2ccccc2N2CCCCC2)ccc1C(=O)O please.
Resp: 7

###

Experiment: clinical
Conditions: human, plasma, po, 1 mg
Assay readout: concentration at 0.5 h
Answer shape: numeric part, then the unit.

Req: Quote concentration at 0.5 h reported for CCOc1cc(CC(=O)NC(CC(C)C)c2ccccc2N2CCCCC2)ccc1C(=O)O (racemic) [AG-EE 388 ZW] please.
Resp: 35.1 ng/mL

###

Assay: Study 2: plasma concentration, HPLC
Assay type: in vivo, human
Settings: human, plasma, po, 2 mg, 2 mg tablet, 1.50 h
Assay readout: concentration at 1.5 h
Answer shape: numeric part, then the unit.

Req: Quote concentration at 1.5 h reported for CCOc1cc(CC(=O)NC(CC(C)C)c2ccccc2N2CCCCC2)ccc1C(=O)O (racemic) please.
Resp: 0.0659 µg/mL

###

Test: Study 3: plasma concentration of active substance, single test subject
Format: in vivo, human
Conditions: human, plasma, po; 2 mg, 1.50 h
Assay readout: concentration at 1.5 h (ng/mL)
Please respond with the number in ng/mL and leave the unit unwritten.

Req: Quote concentration at 1.5 h reported for CCOc1cc(CC(=O)N[C@@H](CC(C)C)c2ccccc2N2CCCCC2)ccc1C(=O)O please.
Resp: 22

Req: Quote concentration at 1.5 h reported for CCOc1cc(CC(=O)NC(CC(C)C)c2ccccc2N2CCCCC2)ccc1C(=O)O (racemic) please.
Resp: 68

###

Assay: clinical
Details: human, plasma, iv, 1 mg
Assay readout: concentration at 1.25 h (ng/mL)
Please respond with the number in ng/mL and leave the unit unwritten.

Req: Quote concentration at 1.25 h reported for CCOc1cc(CC(=O)NC(CC(C)C)c2ccccc2N2CCCCC2)ccc1C(=O)O (racemic) please.
Resp: 31.4

###

Test: clinical
Conditions: human, plasma, po, 2 mg
Assay readout: concentration at 5 h (ng/mL)
Please respond with the number in ng/mL and leave the unit unwritten.

Req: Quote concentration at 5 h reported for CCOc1cc(CC(=O)N[C@@H](CC(C)C)c2ccccc2N2CCCCC2)ccc1C(=O)O please.
Resp: 0.4

###

Test: Study 2: plasma concentration, HPLC
Format: in vivo, human
Conditions: human, plasma, po, 2 mg, 2 mg tablet, 9.00 h
Assay readout: concentration at 9 h (ng/mL)
Please respond with the number in ng/mL and leave the unit unwritten.

Req: Quote concentration at 9 h reported for CCOc1cc(CC(=O)NC(CC(C)C)c2ccccc2N2CCCCC2)ccc1C(=O)O (racemic) please.
Resp: 5.2

###

System: blood glucose
Experiment: Test for hypoglycemic activity in fasted female rats (oral)
Type: in vivo
Settings: Rattus norvegicus, po; 0.5 mg/kg, 1 h; read-out: Change in glucose content compared with control
Procedure: Blood samples were taken immediately before the administration of the test compound and 1, 2, 3 and 4 hours afterwards, in each case from the retroorbital Venous plexus. 50 μl of each sample were deproteinated with 0.5 ml of 0.33 N perchloric acid and centrifuged. The glucose in the supernatant fluid was measured using the hexokinase method with the aid of an analytical photometer. The statistical evaluation was made using the t-test according to Student with p=0.05 as the limit of significance.
For each of the compounds below, state its change in vivo at 0.5 mg/kg.
Please respond with the number in % and leave the unit unwritten.

Req: Quote change in vivo at 0.5 mg/kg reported for CCOc1cc(CC(=O)NC(CC2CCCCC2)c2ccccc2N2CCCCC2)ccc1C(=O)O (stereo not shown) please.
Resp: -22

Req: Quote change in vivo at 0.5 mg/kg reported for C=CCC(NC(=O)Cc1ccc(C(=O)O)c(OCC)c1)c1ccccc1N1CCCCC1 (stereo not shown) please.
Resp: -42

Req: Quote change in vivo at 0.5 mg/kg reported for CCCC(NC(=O)Cc1ccc(C(=O)O)c(OCC)c1)c1ccccc1N1CCCCC1 (single isomer, unassigned; (+)) [E] please.
Resp: -40

Req: Quote change in vivo at 0.5 mg/kg reported for CCCCC(NC(=O)Cc1ccc(C(=O)O)c(OCC)c1)c1ccccc1N1CCCCC1 (stereo not shown) please.
Resp: -42
